molecular target: human GPR40 (Homo sapiens, UniProt O14842); assay: Inositol Phosphate Turnover (IP1) Assay 2; format: cell-based; set-up: expressed in transfected cells; details: HEK cells stably expressing human GPR40, Table 3, read-out: Human IP1 activity
Sequence (O14842 whole entry): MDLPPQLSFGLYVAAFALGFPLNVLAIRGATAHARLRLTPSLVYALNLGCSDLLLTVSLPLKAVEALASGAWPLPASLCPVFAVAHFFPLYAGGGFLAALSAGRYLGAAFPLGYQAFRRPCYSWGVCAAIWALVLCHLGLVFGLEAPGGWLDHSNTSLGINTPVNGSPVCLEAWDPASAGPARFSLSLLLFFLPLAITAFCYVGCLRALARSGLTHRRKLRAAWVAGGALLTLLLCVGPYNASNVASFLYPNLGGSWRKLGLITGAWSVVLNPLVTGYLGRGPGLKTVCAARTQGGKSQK
pEC50: −log10 of the molar value.
readout-type: pEC50

a = COc1ccc(F)c(-c2ccc([C@H]3COc4ccc([C@H](C5CC5)[C@@H](C)C(=O)O)cc4O3)cc2Cl)c1
b = COc1ccc(F)c(-c2ccc([C@H]3COc4ccc([C@H](C5CC5)[C@H](C)C(=O)O)cc4O3)cc2-c2cccc3ccn(C)c23)c1
Response body: label of entry with the larger pEC50; valid values a , b . Answer format: the label of the selected item.
b
